- Substrate: O=C(O)C(=O)CC(O)C(=O)O
- protocol: purified protein
- Assay type: biochemical, Homo sapiens
- condition-parameters: racemic HOG, 100 mM TRIS pH 8.5, 37°C, aldol cleavage
Each entry below carries its recorded Km.
Value expressed in µM; do not type the unit.

Please review the entries below; each comes with its answer.
Km in this record for human HOGA (hHOGA) (Homo sapiens; N78T) (protein, His-tag (WT, Y140F) cleavable by PreScission leaving GPH, 33,097 Da tag-free; S77, N78 and S198 mutants as MBP fusion, MBP cleaved; tetramer) ASGEGKKVDIAGIYPPVTTPFTATAEVDYGKLEENLHKLGTFPFRGFVVQGSTGEFPFLTSSERLEVVSRVRQAMPKNRLLLAGSGCESTQATVEMTVSMAQVGADAAMVVTPCYYRGRMSSAALIHHYTKVADLSPIPVVLYSVPANTGLDLPVDAVVTLSQHPNIVGMKDSGGDVTRIGLIVHKTRKQDFQVLAGSAGFLMASYALGAVGGVCALANVLGAQVCQLERLCCTGQWEDAQKLQHRLIEPNAAVTRRFGIPGLKKIMDWFGYYGGPCRAPLQELSPAEEEALRMDFTSNGWL : 16

Km in this record for human HOGA (hHOGA) (Homo sapiens; S77T) (protein, His-tag (WT, Y140F) cleavable by PreScission leaving GPH, 33,097 Da tag-free; S77, N78 and S198 mutants as MBP fusion, MBP cleaved; tetramer) ASGEGKKVDIAGIYPPVTTPFTATAEVDYGKLEENLHKLGTFPFRGFVVQGTNGEFPFLTSSERLEVVSRVRQAMPKNRLLLAGSGCESTQATVEMTVSMAQVGADAAMVVTPCYYRGRMSSAALIHHYTKVADLSPIPVVLYSVPANTGLDLPVDAVVTLSQHPNIVGMKDSGGDVTRIGLIVHKTRKQDFQVLAGSAGFLMASYALGAVGGVCALANVLGAQVCQLERLCCTGQWEDAQKLQHRLIEPNAAVTRRFGIPGLKKIMDWFGYYGGPCRAPLQELSPAEEEALRMDFTSNGWL : 58

Please examine the following record next.
Km in this record for human HOGA (hHOGA) (Homo sapiens; S198T) (protein, His-tag (WT, Y140F) cleavable by PreScission leaving GPH, 33,097 Da tag-free; S77, N78 and S198 mutants as MBP fusion, MBP cleaved; tetramer) ASGEGKKVDIAGIYPPVTTPFTATAEVDYGKLEENLHKLGTFPFRGFVVQGSNGEFPFLTSSERLEVVSRVRQAMPKNRLLLAGSGCESTQATVEMTVSMAQVGADAAMVVTPCYYRGRMSSAALIHHYTKVADLSPIPVVLYSVPANTGLDLPVDAVVTLSQHPNIVGMKDTGGDVTRIGLIVHKTRKQDFQVLAGSAGFLMASYALGAVGGVCALANVLGAQVCQLERLCCTGQWEDAQKLQHRLIEPNAAVTRRFGIPGLKKIMDWFGYYGGPCRAPLQELSPAEEEALRMDFTSNGWL : 77
